# maps each entry to its speed of sound
EXPERIMENTAL PARAMETERS: 303.15 K; 100 kPa; Liquid; Frequency=2 MHz; Linear variable-path acoustic interferometer
PROPERTY MEASURED: speed of sound (m/s)

- Cc1ccc(O)cc1: 1473
- Cc1ccccc1O: 1488.1
- Cc1cccc(O)c1: 1466.1
- CCO: 1127

###

EXPERIMENTAL PARAMETERS: 303.15 K; 100 kPa; Liquid; Vibrating tube method
PROPERTY MEASURED: mass density (kg/m3)

* Cc1ccccc1O [2-methylphenol] | 1037.02
* CCO [ethanol] | 781.08
* Cc1ccc(O)cc1 [4-methylphenol] | 1026.47
* Cc1cccc(O)c1 [3-methylphenol] | 1025.71
